Here's a roundup of IC50 values tested on Cytochrome P450 1A2 (Homo sapiens, UniProt P05177), taken from various published works.

Looking up "C[C@H]1SC(N)=N[C@](C)(c2cc(NC(=O)c3ncc(OCC(F)(F)F)cn3)ccc2F)[C@H]1F" , I found its IC50 recorded as ≥ 20 µM

// sample "FC(F)(F)Cc1nnc2ccc(-c3ccc(OC(F)(F)F)cc3)nn12" , its IC50 was 1 to 15 µM

The recorded IC50 for "C[C@]1(c2cc(NC(=O)c3ccc(C#N)cn3)ccc2F)N=C(N)O[C@H](CF)[C@@H]1OCC(F)(F)F" is ≥ 20 µM

Field IC50 (entry "C[C@]1(c2cc(NC(=O)c3ccc(C#N)cn3)ccc2F)N=C(N)O[C@H]2[C@@H]1OCC2(F)F" ) reads ≥ 20 µM

Field IC50 (entry "C[C@H]1SC(N)=N[C@](C)(c2cc(NC(=O)c3coc(CF)n3)ccc2F)[C@H]1F" ) reads ≥ 20 µM

IC50 measured on "Cc1cnc(Nc2cnn(CCO)c2)nc1-c1ccc(C(=O)N[C@H](C#N)C2CC2)cc1" = > 50 µM

For record "CC(=O)N1CCC(n2cc(Nc3ncc(C)c(-c4ccc(C(=O)NCC#N)cc4)n3)cn2)CC1" the listed IC50 is > 50 µM
